# Test system: HMLE_sh_eGFP viability, CellTiter-Glo luminescence, 72 h
# procedure-summary: cytotoxicity in HMLE_sh_eGFP control cells, dose response, counter-screen for breast cancer stem cell project, cell-based, luminescence, powder samples, set 5 (AID 504533)
Results filed as inconclusive are left out.
Assignment: determine reported AC50 for the given compounds.

Consider the following items and state reported AC50 for each.
1. Cc1csc(NC(=O)c2ccc(CNc3ccccc3)o2)n1
2. CC(C)Cc1ccc(/C=C/C(=O)NC2=NCCS2)cc1
3. COc1cccc(OCc2ccc(C(=O)Nc3nc(C)cs3)o2)c1
4. Cc1csc(NC(=O)c2ccc(COCc3ccccc3)o2)n1
5. Cc1csc(NC(=O)c2ccc(CCc3ccccc3)o2)n1

Solution:
5.09 µM
3.27 µM
2.64 µM
19.6 µM
9.08 µM

The measurements presented in this section are drawn from PubChem BioAssay AID504533.
